- targetOrSystem: KV7.2/3 channel (Homo sapiens, UniProt O43525+O43526)
- Sequence (O43525 whole entry): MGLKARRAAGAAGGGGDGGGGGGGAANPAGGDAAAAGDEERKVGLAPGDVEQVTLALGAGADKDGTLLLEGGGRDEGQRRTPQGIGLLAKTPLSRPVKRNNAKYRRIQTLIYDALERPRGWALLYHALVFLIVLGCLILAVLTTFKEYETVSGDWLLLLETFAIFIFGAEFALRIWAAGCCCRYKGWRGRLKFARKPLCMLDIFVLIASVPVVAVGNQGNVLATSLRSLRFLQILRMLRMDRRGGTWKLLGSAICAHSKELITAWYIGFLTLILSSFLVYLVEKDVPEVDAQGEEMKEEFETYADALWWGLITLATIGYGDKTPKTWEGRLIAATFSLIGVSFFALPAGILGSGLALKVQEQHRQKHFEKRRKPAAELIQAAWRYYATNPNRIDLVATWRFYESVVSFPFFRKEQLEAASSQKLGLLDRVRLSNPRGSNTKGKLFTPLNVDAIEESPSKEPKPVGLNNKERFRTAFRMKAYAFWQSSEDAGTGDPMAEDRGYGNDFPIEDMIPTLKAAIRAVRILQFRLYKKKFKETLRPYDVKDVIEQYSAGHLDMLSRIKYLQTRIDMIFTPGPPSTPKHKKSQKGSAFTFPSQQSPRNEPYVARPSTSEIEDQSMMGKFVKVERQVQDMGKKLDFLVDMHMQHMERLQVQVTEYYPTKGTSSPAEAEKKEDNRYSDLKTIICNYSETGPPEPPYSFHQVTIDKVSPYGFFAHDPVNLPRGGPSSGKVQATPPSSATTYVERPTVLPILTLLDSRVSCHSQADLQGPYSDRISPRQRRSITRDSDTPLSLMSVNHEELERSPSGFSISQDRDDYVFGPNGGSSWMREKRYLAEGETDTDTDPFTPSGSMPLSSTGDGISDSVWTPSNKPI
- Sequence (O43526 whole entry): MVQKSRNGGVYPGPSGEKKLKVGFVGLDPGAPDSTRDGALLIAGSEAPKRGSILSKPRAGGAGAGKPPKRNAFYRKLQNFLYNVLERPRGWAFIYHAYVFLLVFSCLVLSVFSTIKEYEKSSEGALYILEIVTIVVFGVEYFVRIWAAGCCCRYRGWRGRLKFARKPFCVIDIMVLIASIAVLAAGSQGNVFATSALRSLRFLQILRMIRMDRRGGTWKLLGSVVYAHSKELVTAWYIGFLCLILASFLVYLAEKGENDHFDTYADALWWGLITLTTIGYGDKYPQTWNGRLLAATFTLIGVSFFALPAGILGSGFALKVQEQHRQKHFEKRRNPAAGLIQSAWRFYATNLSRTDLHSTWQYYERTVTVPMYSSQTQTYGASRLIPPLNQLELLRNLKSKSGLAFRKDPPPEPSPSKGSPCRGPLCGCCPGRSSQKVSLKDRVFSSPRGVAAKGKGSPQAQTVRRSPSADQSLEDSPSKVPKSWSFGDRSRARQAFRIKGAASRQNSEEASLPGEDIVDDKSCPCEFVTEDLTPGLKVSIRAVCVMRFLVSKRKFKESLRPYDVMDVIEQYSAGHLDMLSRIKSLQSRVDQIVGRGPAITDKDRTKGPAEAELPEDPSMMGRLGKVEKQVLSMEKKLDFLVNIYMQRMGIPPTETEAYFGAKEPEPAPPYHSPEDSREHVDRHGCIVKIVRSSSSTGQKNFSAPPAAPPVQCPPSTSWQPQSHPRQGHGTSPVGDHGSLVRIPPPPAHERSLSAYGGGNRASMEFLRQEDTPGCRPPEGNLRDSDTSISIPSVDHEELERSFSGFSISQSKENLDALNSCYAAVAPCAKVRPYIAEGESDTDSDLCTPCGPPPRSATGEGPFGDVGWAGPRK
- measurementNotes: KV7.2/3 channel opening activity, thallium-flux FLIPR Potassium Assay in HEK-293 cells overexpressing KV7.2/3
- testParameters: HEK‐293 cells overexpressing KV7.2/3
endpointLabel: KV7.2/3 opening activity (in words)

[[record]]
molecule = "Cc1cc(CNc2ccc(F)cc2)ccc1NC(=O)c1ccccc1CO [compound 48]"
experimentalresult = "inactive"

[[record]]
molecule = "Cc1cc(CNc2ccc(F)cc2)cnc1NC(=O)CC(C)(C)C [43 b]"
experimentalresult = "submicromolar activity"

[[record]]
molecule = "Cc1cc(CNc2ccc(F)cc2F)ccc1NC(=O)c1cccnc1 [35 e]"
experimentalresult = "inactive"

[[record]]
molecule = "CCCC(=O)Nc1c(C)cc(CNc2ccc(F)cc2)cc1C [35 a]"
experimentalresult = "submicromolar activity"

